# Tested on: MS2 coat protein
# Method notes: apparent KD of MS2 coat protein; higher = weaker reporter binding
# Setup conditions: Eterna round: R107; input ligand: tryptophan 2.4 mM
# apparent KD of MS2 coat protein listing for each entry below

{"Sequence": "CCUAUCCAGUCGGCCGCCACUGAAAACAGUGGGUGAACAUGAGGAUCACCCAUGUAAUAAUAAAACAGGACCGGGACUGUAUAGG [Ex Tryptophan B 22]", "Measurement target": "MS2 coat protein", "apparent KD of MS2 coat protein": "369 nM"}
{"Sequence": "ACACAUGAGGAUCACCCAUGUGCCCAUGAAGGAGCGUGGGAAACCACAGGUAGGUCGCAUGACAUGAGGAUCACCCAUGUUUAUU [Astarte]", "Measurement target": "MS2 coat protein", "apparent KD of MS2 coat protein": "41.9 nM"}
{"Sequence": "UUUUAAAGCAUGGCGUAUCGGAAAACCGAUACCAGUACAGAAAUGUACCCUUGGCAGCGGCAUUUUACAUGAGGAUCACCCAUGU [Ex Theophylline A 2]", "Measurement target": "MS2 coat protein", "apparent KD of MS2 coat protein": "14.5 nM"}

----------
# Tested on: MS2 coat protein
# Method notes: apparent KD of MS2 coat protein; designed switch direction (-1 OFF switch, 1 ON switch): -1; higher = weaker reporter binding
# Setup conditions: input ligand: microRNA oligo, concentration not stated
# cutoff 20 nM applies to apparent KD of MS2 coat protein; >= gives class 1, < gives class 0

{"Sequence": "AAUUAUUUUUGAGGAUAUGGUGGUGAAACACCACCAGAAGGCGAGAUAAACAUGAGGAUCACCCAUGUGAGCCUGAUGCUUAUG [Ex NG1 #49] (Eterna round: R96, puzzle: Exclusion NG 1)", "Assigned category": "class 0"}
{"Sequence": "CCCAGUUAGUCAGGAUAUCUUACAUGAGGAUCACCCAUGUAAUAAAUGAGGAUUUCGGGUGUCUAAGAGAAGGGACGGAUAGGC [Ostracism 27 - Jieux - Exclusion NG 2] (Eterna round: R96, puzzle: Exclusion NG 2)", "Assigned category": "class 0"}
{"Sequence": "AAUUAUUUUUGAGGAUAUCGUGGUGAAACACCACGAGAAGGCGAGAUAAACAUGAGGAUCACCCAUGUGAGCCUGAUGCUUAUG [Ex NG1 #50] (Eterna round: R96, puzzle: Exclusion NG 1)", "Assigned category": "class 0"}
{"Sequence": "AGCUGUGGCCAAGGAUAUCUAACCUUAAAUACCGACGUAUAGUCGGACAUGAGGAUCACCCAUGUGGAGAAGGUGGUCUCAGCA [Eli eng2 - 043] (Eterna round: R96, puzzle: Exclusion NG 2)", "Assigned category": "class 0"}
{"Sequence": "CAAGAUUACUGAGGAUAUCCUAGUUUAUCUCAGGGAGAAGGCGGACUCAACAUGAGGAUCACCCAUGUAAGACGGGUACUAGAG [Ex NG1 #15] (Eterna round: R96, puzzle: Exclusion NG 1)", "Assigned category": "class 1"}
{"Sequence": "UAAUUAAUAAGAUCAAUUAAUUAACAUGAGGAUCACCCAUGUGAGGAUAUCAGCUCGUGUAGAGCUGAGAAGGCACAAUAAUUA [ExNG3/17-C3] (Eterna round: R96, puzzle: Exclusion NG 3)", "Assigned category": "class 1"}
{"Sequence": "ACAUGAGGAUCACCCAUGUACACGUAAUGGCUCAUGUAGAGUGAGGAUAUGUGAGACGAACGAGCACAGAAGGCACAAGACAGG [Deportation 10 - Jieux - Exclusion NG 3] (Eterna round: R96, puzzle: Exclusion NG 3)", "Assigned category": "class 1"}
{"Sequence": "CUGCUCCGUGUAGGAUAUGCGCGCACCCAACGCGCAGAAGGACAUGAGGAUCACCCAUGUAUGUUAUUAUCACGUGAGGCGCAG [Design 34] (Eterna round: R96, puzzle: Exclusion NG 1)", "Assigned category": "class 0"}
{"Sequence": "CCAAGAUAGGAAGGAUAUUGUACAUGAGGAUCACCCAUGUAAUAAAUGAGGAUCACGGAUGUAGACAAGAAGGUCCGGAUAAGC [Ostracism 5 - Jieux - Exclusion NG 2] (Eterna round: R96, puzzle: Exclusion NG 2)", "Assigned category": "class 1"}
